tested on: HCT-116 colon; test: NCI tumour cell line growth inhibition, 48 h; in the data active means GI50 below about 0.43 µM; inactive means the rest
Use one of these outcomes when replying: active, inactive

Answered examples (4):
- MOLECULE: "CCCCCCCCCCCCOC1C(C(CC(=O)N2CCN(Cc3ccc4c(c3)OCO4)CC2)NS(=O)(=O)c2cc(Cl)cc(Cl)c2)OC2OC(C)(C)OC21 (stereo unspecified)"
  ANSWER LABEL: "inactive"
- MOLECULE: "COC(=O)[C@]1(C)CCC[C@]2(C)[C@@H]1CCC13C[C@@H](C=CO1)[C@@H](C)CC32O (stereo partly specified)"
  ANSWER LABEL: "inactive"
- MOLECULE: "CNCc1ccc(-c2[nH]c3cc(F)cc4c3c2CCNC4=O)cc1"
  ANSWER LABEL: "inactive"
- MOLECULE: "COc1cc(/C=C\\c2cc(OC)c(OC)c(OC)c2)cc(NS(=O)(=O)c2ccc(Cl)cc2)c1OC"
  ANSWER LABEL: "inactive"

Test call, this molecule: c1cncc([O][Ge]([O]c2cccnc2)([O]c2cccnc2)[O]c2cccnc2)c1
inactive

Then N#CC(NC(=O)CCl)=C(Cl)Cl ?
inactive

Now consider C#CC#CC#CC#CC#CC#CC#CC#CC[C@@H]1OC[C@@H](COC(=O)O[C@@H](C(=O)O[C@H]2C[C@@]3(O)[C@@H](OC(=O)c4ccccc4)[C@@H]4[C@]5(OC(C)=O)CO[C@@H]5C[C@H](O)[C@@]4(C)C(=O)[C@H](OC(C)=O)C(=C2C)C3(C)C)[C@@H](NC(=O)c2ccccc2)c2ccccc2)O1 .
active

Same again, this time with CC1=C2[C@@H](CC1)[C@]1(C)O[C@@](C3CC3)(C[C@H]1OC(=O)CO)[C@H]2OC(=O)/C=C/c1ccccc1
inactive

Repeat with C=C(Cn1c2ccccc2c(=O)c2ccccc21)c1ccc(C(=O)Nc2ccccc2N)cc1
inactive

Next up: COc1c(O)c2c3c(c1OC)-c1ccccc1CC3N(S(=O)(=O)c1ccc(C)cc1)CC2 (stereo unspecified)
inactive

// query: [Cl-].[Gd+3].[O-]/N=C(\c1ccccc1)c1ccccn1.[O-]/N=C(\c1ccccc1)c1ccccn1.[O-]/N=C(\c1ccccc1)c1ccccn1
inactive
